Below is a list of entries, each paired with its recorded TGI value.
Tested on: SN12C renal
Assay: NCI tumour cell line growth inhibition, 48 h

Please review the following examples before continuing.
INSERT INTO assay_data (compound, system_name, readout, recorded_result) VALUES
  ('C=CCN(C(=O)OC(C)(C)C)[C@H](C)C(=O)N[C@@H](C)C(=O)OC', 'SN12C renal', 'TGI', '> 100 µM'),
  ('O=C(c1ccccc1)C1OC12C(=O)Nc1c(Cl)cc(Cl)cc12 (stereo not drawn)', 'SN12C renal', 'TGI', '> 91.2 µM');

Kindly consider the entry below.
(Q) Given the entry CC1(C)OC(=O)N(c2ccccc2)C12C=Cc1cccc([N+](=O)[O-])c1O2 (stereo not drawn) , report its measured TGI.
(A) > 100 µM

----------
Tested on: U251 CNS
readout: GI50

INSERT INTO measurements (compound, system_name, recorded_result) VALUES
  ('CC(C)([NH-])CO.CC(C)([NH-])CO.[Cl][Cd][Cl]', 'U251 CNS', '15.4 µM');

(Q) Missing value: GI50, U251 CNS, entry O=c1cc(-c2cccc3c2Sc2ccccc2S3)oc(N2CCOCC2)c1 . Fill in?
(A) 8.94 µM

(Q) How about COC(=O)c1cc(O)c2cc3c(cc2c1-c1cc(OC)c(OC)c(OC)c1)OCO3 ?
(A) 0.577 µM

(Q) Proceed to Cc1csc(/C=C/C(=O)c2nnn(-c3ccnc4c(C(F)(F)F)cccc34)c2C)c1
(A) 39.2 µM

(Q) How about S=C(Nc1ccc(-c2nc3ccccc3[nH]2)cc1)Nc1ccc(-c2nc3ccccc3[nH]2)cc1 ?
(A) > 100 µM

(Q) Record: O=C(Nc1ccc(-n2ccc3c(NC(=O)c4ccccc4)ncnc32)cc1)Nc1ccc(Cl)c(Cl)c1
(A) 0.942 µM

(Q) // next record CCN(CC)c1ccc(C(O)C2=CC(=O)c3ccccc3C2=O)cc1 (configuration not stated)
(A) 1.32 µM

----------
System: MDA-MB-435
readout: GI50

INSERT INTO assay_data (molecule, readout, recorded_result) VALUES
  ('c1ccc(CN2COc3c(ccc4c3OCN(Cc3ccccc3)C4)C2)cc1', 'GI50', '1720 nM');

(Q) Would you kindly share the measured GI50 for CS(=O)(=O)CCc1cccc(C(=O)c2cnn(-c3ccc(F)cc3)c2N)c1 ?
(A) > 25000 nM

(Q) Would you mind doing O=C(Nc1ccncc1)C(=O)c1cn(S(=O)(=O)c2ccc(Cl)cc2)c2ccccc12 as well?
(A) 106 nM

(Q) Another molecule: CCC(=C/[C@H](C)C/C=C/C(C)=C/[C@@H](C)C(=O)[C@@H](C)[C@H](O)[C@@H](C)CC)/C=C/[C@@H]1OC(=O)C=C[C@H]1C
(A) < 10 nM

(Q) Also O=C1C=CC(=Nc2cc(Br)c(O)c(Br)c2)C=C1 ?
(A) 18900 nM

(Q) Another: COc1cc(C(=O)N2CCN(c3ncnc4ccccc34)CC2)c(N)cc1OCc1ccccc1
(A) 13100 nM

(Q) Another molecule: S=C(Nc1ccc(-c2nc3ccccc3[nH]2)cc1)Nc1ccc(-c2nc3ccccc3[nH]2)cc1
(A) > 100000 nM

(Q) Ok, now C=C1CCC2C3(C)COC(c4ccccc4)OC3CCC2(C)C1/C=C/C1=CCOC1=O (stereo not given)
(A) 2840 nM

(Q) Also check O=C(COc1cc(O)c2c(=O)cc(-c3ccccc3)oc2c1)Nc1ccccc1C(F)(F)F
(A) 6030 nM

(Q) Another molecule to look at: COC(=O)c1cc(O)c2cc3c(cc2c1-c1cc(OC)c(OC)c(OC)c1)OCO3
(A) 277 nM

----------
Test system: OVCAR-4 ovarian
Assay: NCI tumour cell line growth inhibition, 48 h
readout: TGI

INSERT INTO results (compound, readout, recorded_result) VALUES
  ('O=C(Nc1ccncc1)C(=O)c1cn(S(=O)(=O)c2ccc(Cl)cc2)c2ccccc12', 'TGI', '> 70.3 µM'),
  ('COC(=O)c1cc(C(=CCC[C@H]2CC[C@@]3(C)C(CCC4C3CC[C@@]3(C)C4CC[C@@H]3C(C)CCCC(C)C)C2)c2cc(Cl)c(O)c(C(=O)OC)c2)cc(Cl)c1O (stereo not given in full)', 'TGI', '> 10 µM'),
  ('CS(=O)(=O)c1ccc(N=C/C=C/Nc2ccc(S(C)(=O)=O)cc2)cc1', 'TGI', '> 100 µM'),
  ('Cc1nc(-c2cn3c(n2)-c2ccc(-c4cnn(C(C)(C)C(N)=O)c4)cc2OCC3)n(C(C)C)n1', 'TGI', '> 10 µM');

(Q) Field request: TGI | item: CC(C)C(=O)Nc1cc(C(F)(F)F)ccc1[N+](=O)[O-]
(A) > 100 µM

----------
Tested on: M14 melanoma
Assay: NCI tumour cell line growth inhibition, 48 h
readout: TGI

The examples below pair each entry with its known result.
INSERT INTO assay_data (compound, system_name, recorded_result) VALUES
  ('O=C(CN1CCOCC1)c1ccc2c(c1)oc(=O)n2CCN1CCOCC1', 'M14 melanoma', '> 100 µM'),
  ('O=c1c(Br)cc2nc3ccccc3sc-2c1Br', 'M14 melanoma', '> 100 µM'),
  ('Cc1ccc(S(=O)(=O)Oc2nc3ccccc3nc2OS(=O)(=O)c2ccc(C)cc2)cc1', 'M14 melanoma', '> 100 µM'),
  ('CC(=O)OCC1OC(Nn2c(=O)[nH]c3ccccc3c2=O)C(OC(C)=O)C(OC(C)=O)C1OC(C)=O (stereo not given)', 'M14 melanoma', '> 100 µM');

(Q) // lookup TGI | system=M14 melanoma | key= CCOC(=O)C1=NN(c2ccc([N+](=O)[O-])cc2)[C@@]2(C)C[C@]3(c4ccccc4)N(c4ccc([N+](=O)[O-])cc4)N=C(C(=O)OCC)N3c3ccccc3N12
(A) > 100 µM

----------
Reported TGI values for a set of compounds
Tested on: MDA-MB-231 breast
Experiment: NCI tumour cell line growth inhibition, 48 h

INSERT INTO results (compound, readout, recorded_result) VALUES
  ('Cc1csc(/C=C/C(=O)c2nnn(-c3ccnc4c(C(F)(F)F)cccc34)c2C)c1', 'TGI', '> 100 µM'),
  ('CC1SCc2nc3ccccc3n21 (stereo unspecified)', 'TGI', '> 100 µM'),
  ('CC1CCCC(C(O)CC2CC(=O)NC(=O)C2)C1O (stereo unspecified)', 'TGI', '> 100 µM'),
  ('CS(=O)(=O)c1ccc(N=C/C=C/Nc2ccc(S(C)(=O)=O)cc2)cc1', 'TGI', '> 100 µM'),
  ('O=C(c1ccccc1)c1ccc2[nH]c(-c3c(Cl)c(Cl)c(Cl)c(Cl)c3C(=O)N/N=C/c3cccc(Oc4ccccc4)c3)nc2c1', 'TGI', '> 100 µM');

(Q) Name the reported TGI value associated with the compound NCCCC[C@H](N)C(=O)Nc1ccc(-c2nc3ccccc3s2)cc1
(A) 37.6 µM

(Q) Field entry: CCOC(=O)C1(C(=O)OCC)OC(C)=NC1(C(=O)OC)C(=O)OC
(A) > 100 µM

(Q) Then Cc1cc(Cc2cc(C)c(NC(=O)C(=O)C3CCC4=C(SC5C=CC=CC5N4)C3=O)c(C(C)C)c2)cc(C(C)C)c1NC(=O)C(=O)C1CCC2=C(SC3C=CC=CC3N2)C1=O (stereo unspecified) ?
(A) > 100 µM

----------
Tested on: M14 melanoma
Experiment: NCI tumour cell line growth inhibition, 48 h
readout: TGI

Some compounds with known TGI results, for comparison:
INSERT INTO assay_data (compound, recorded_result) VALUES
  ('O=C(Nc1ccncc1)C(=O)c1cn(S(=O)(=O)c2ccc(Cl)cc2)c2ccccc12', '> 52.1 µM'),
  ('O=c1ncc(F)cn1C1OC(CO)C(O)C1O (stereo not drawn)', '> 100 µM');

For the next question, use this compound.
(Q) Need TGI, item O=C(c1ccccc1)c1ccc2[nH]c(-c3c(Cl)c(Cl)c(Cl)c(Cl)c3C(=O)N/N=C/c3cccc(Oc4ccccc4)c3)nc2c1
(A) > 100 µM

----------
Tested on: NCI-H226 lung
Experiment: NCI tumour cell line growth inhibition, 48 h
// values below are reported TGI

The cases that follow already have their TGI on record.
INSERT INTO measurements (molecule, recorded_result) VALUES
  ('CN(/N=C/c1cccc2cccnc12)c1ccc(Cl)cc1[N+](=O)[O-]', '> 100 µM'),
  ('COC(=O)c1cc(C(=CCC[C@H]2CC[C@@]3(C)C(CCC4C3CC[C@@]3(C)C4CC[C@@H]3C(C)CCCC(C)C)C2)c2cc(Cl)c(O)c(C(=O)OC)c2)cc(Cl)c1O (stereo not given in full)', '> 10 µM');

(Q) GET /values?readout=TGI&item= [N-]=[N+]=NC(c1cn(C2CC(O)C(CO)O2)c(=O)[nH]c1=O)C(Cl)I (stereo not given)
(A) > 100 µM
